# assayMethodText: NCI Yeast Anticancer Drug Screen. Data for the bub3 strain (AID 167)
# conditionLabel: S. cerevisiae bub3 mutant strain, at 5.0 µM (retest, dose inferred, filed as 0.5)
Compounds without any hit were thinned out: in the full panel of roughly 79,000, 15% have a hit. Active and inactive are the calls of the source. Cut-off read from the data, not from the text of the source: active = growth inhibition above about 70%; inactive = the rest.
Classes to choose from: true (active), false (inactive)

Look over these answered cases.
compound	categoryLabel
CC(=O)[C@H]1CC[C@H]2[C@@H]3CC[C@H]4C[C@@H](N5CCOCC5)CC[C@]4(C)[C@H]3CC[C@]12C	false
c1ccc2c(c1)ccc1c2ccc2sc3ccccc3[n+]21	false
CC(=O)N1OC2(C)c3ccccc3C1(C)c1ccccc12	true
COc1cccc2c1C(=O)c1c(O)c3c(c(O)c1C2=O)CC(O)(C(=O)CO)CC3OC1CC(N)C(I)C(C)O1 (stereo not given)	true
C1CCC2CC3(CCNCC3)CCC2C1 (stereo not given)	false

Lookup: Field: outcome | Entry: Cc1c2ccccc2cc2c1ccc1cccc(F)c12
Found: false

Lookup: Field: outcome | Entry: O=[N+]([O-])c1cc(Br)cc2c1nc(NCCCO)c1ccccc12
Found: false

Lookup: Field: outcome | Entry: C=CC(=O)N1C/C(=C\c2ccc(F)cc2)C(=O)/C(=C/c2ccc(F)cc2)C1
Found: false

Lookup: Field: outcome | Entry: CC(=O)[O-].O=C(N/N=C/c1ccccc1[O-])c1ccccc1.[Zn+2]
Found: false

Lookup: Field: outcome | Entry: Brc1ccc(N2COc3ccc4ccccc4c3C2)cc1
Found: false
